condition_set: in n-propanol, 303.15 K
experimental_readout: solubility (mole fraction)

> print(dat)
            smiles.str  test.result
1  O=C1NC(=O)c2ccccc21      0.00308

* * *

condition_set: in methanol, 303.15 K
experimental_readout: solubility (mole fraction)

> print(dat)
            smiles.str        experimental.readout  test.result
1  O=C1NC(=O)c2ccccc21  solubility (mole fraction)      0.00317

* * *

condition_set: in isobutanol, 305.65 K
experimental_readout: solubility (mole fraction)

> print(dat)
            smiles.str        experimental.readout  test.result
1  O=C1NC(=O)c2ccccc21  solubility (mole fraction)      0.00315

* * *

condition_set: in acetone, 310.65 K
experimental_readout: solubility (mole fraction)

> print(dat)
            smiles.str  test.result
1  O=C1NC(=O)c2ccccc21       0.0181

* * *

condition_set: in toluene, 310.65 K
experimental_readout: solubility (mole fraction)

> print(dat)
            smiles.str  test.result
1  O=C1NC(=O)c2ccccc21       0.0009

* * *

condition_set: in n-butanol, 283.15 K
experimental_readout: solubility (mole fraction)

> print(dat)
            smiles.str  test.result
1  O=C1NC(=O)c2ccccc21      0.00166

* * *

condition_set: in isopropanol, 303.15 K
experimental_readout: solubility (mole fraction)

> print(dat)
            smiles.str  test.result
1  O=C1NC(=O)c2ccccc21      0.00365

* * *

condition_set: in acetone, 305.65 K
experimental_readout: solubility (mole fraction)

> print(dat)
            smiles.str  test.result
1  O=C1NC(=O)c2ccccc21       0.0159

* * *

condition_set: in isopropanol, 318.15 K
experimental_readout: solubility (mole fraction)

> print(dat)
            smiles.str  test.result
1  O=C1NC(=O)c2ccccc21      0.00632

* * *

condition_set: in acetonitrile, 305.65 K
experimental_readout: solubility (mole fraction)

> print(dat)
            smiles.str  test.result
1  O=C1NC(=O)c2ccccc21       0.0043

* * *

condition_set: in ethyl acetate, 290.65 K
experimental_readout: solubility (mole fraction)

> print(dat)
            smiles.str  test.result
1  O=C1NC(=O)c2ccccc21      0.00557

* * *

condition_set: in methanol, 313.15 K
experimental_readout: solubility (mole fraction)

> print(dat)
            smiles.str        experimental.readout  test.result
1  O=C1NC(=O)c2ccccc21  solubility (mole fraction)      0.00445

* * *

condition_set: in acetone, 285.65 K
experimental_readout: solubility (mole fraction)

> print(dat)
            smiles.str        experimental.readout  test.result
1  O=C1NC(=O)c2ccccc21  solubility (mole fraction)      0.00854

* * *

condition_set: in n-butanol, 303.15 K
experimental_readout: solubility (mole fraction)

> print(dat)
            smiles.str        experimental.readout  test.result
1  O=C1NC(=O)c2ccccc21  solubility (mole fraction)      0.00336

* * *

condition_set: in n-butanol, 295.65 K
experimental_readout: solubility (mole fraction)

> print(dat)
            smiles.str        experimental.readout  test.result
1  O=C1NC(=O)c2ccccc21  solubility (mole fraction)      0.00266

* * *

condition_set: in methanol, 290.65 K
experimental_readout: solubility (mole fraction)

> print(dat)
            smiles.str  test.result
1  O=C1NC(=O)c2ccccc21      0.00183

* * *

condition_set: in methanol, 308.15 K
experimental_readout: solubility (mole fraction)

> print(dat)
            smiles.str        experimental.readout  test.result
1  O=C1NC(=O)c2ccccc21  solubility (mole fraction)      0.00373

* * *

condition_set: in toluene, 285.65 K
experimental_readout: solubility (mole fraction)

> print(dat)
            smiles.str        experimental.readout  test.result
1  O=C1NC(=O)c2ccccc21  solubility (mole fraction)     0.000295

* * *

condition_set: in isopropanol, 300.15 K
experimental_readout: solubility (mole fraction)

> print(dat)
            smiles.str  test.result
1  O=C1NC(=O)c2ccccc21       0.0033

* * *

condition_set: in toluene, 288.15 K
experimental_readout: solubility (mole fraction)

> print(dat)
            smiles.str  test.result
1  O=C1NC(=O)c2ccccc21     0.000348

* * *

condition_set: in isopropanol, 315.65 K
experimental_readout: solubility (mole fraction)

> print(dat)
            smiles.str  test.result
1  O=C1NC(=O)c2ccccc21      0.00575

* * *

condition_set: in ethanol, 293.15 K
experimental_readout: solubility (mole fraction)

> print(dat)
            smiles.str        experimental.readout  test.result
1  O=C1NC(=O)c2ccccc21  solubility (mole fraction)      0.00193

* * *

condition_set: in n-propanol, 318.15 K
experimental_readout: solubility (mole fraction)

> print(dat)
            smiles.str        experimental.readout  test.result
1  O=C1NC(=O)c2ccccc21  solubility (mole fraction)        0.005

* * *

condition_set: in ethyl acetate, 288.15 K
experimental_readout: solubility (mole fraction)

> print(dat)
            smiles.str        experimental.readout  test.result
1  O=C1NC(=O)c2ccccc21  solubility (mole fraction)      0.00498

* * *

condition_set: in isobutanol, 310.65 K
experimental_readout: solubility (mole fraction)

> print(dat)
            smiles.str  test.result
1  O=C1NC(=O)c2ccccc21      0.00368

* * *

condition_set: in toluene, 293.15 K
experimental_readout: solubility (mole fraction)

> print(dat)
            smiles.str        experimental.readout  test.result
1  O=C1NC(=O)c2ccccc21  solubility (mole fraction)     0.000456

* * *

condition_set: in ethanol, 290.65 K
experimental_readout: solubility (mole fraction)

> print(dat)
            smiles.str  test.result
1  O=C1NC(=O)c2ccccc21       0.0017

* * *

condition_set: in isopropanol, 288.15 K
experimental_readout: solubility (mole fraction)

> print(dat)
            smiles.str        experimental.readout  test.result
1  O=C1NC(=O)c2ccccc21  solubility (mole fraction)      0.00198

* * *

condition_set: in n-butanol, 315.65 K
experimental_readout: solubility (mole fraction)

> print(dat)
            smiles.str  test.result
1  O=C1NC(=O)c2ccccc21       0.0049

* * *

condition_set: in ethanol, 315.65 K
experimental_readout: solubility (mole fraction)

> print(dat)
            smiles.str        experimental.readout  test.result
1  O=C1NC(=O)c2ccccc21  solubility (mole fraction)      0.00523

* * *

condition_set: in ethanol, 298.15 K
experimental_readout: solubility (mole fraction)

> print(dat)
            smiles.str  test.result
1  O=C1NC(=O)c2ccccc21       0.0024

* * *

condition_set: in acetonitrile, 295.65 K
experimental_readout: solubility (mole fraction)

> print(dat)
            smiles.str        experimental.readout  test.result
1  O=C1NC(=O)c2ccccc21  solubility (mole fraction)      0.00271

* * *

condition_set: in acetone, 293.15 K
experimental_readout: solubility (mole fraction)

> print(dat)
            smiles.str        experimental.readout  test.result
1  O=C1NC(=O)c2ccccc21  solubility (mole fraction)        0.011

* * *

condition_set: in toluene, 300.15 K
experimental_readout: solubility (mole fraction)

> print(dat)
            smiles.str        experimental.readout  test.result
1  O=C1NC(=O)c2ccccc21  solubility (mole fraction)     0.000624

* * *

condition_set: in toluene, 305.65 K
experimental_readout: solubility (mole fraction)

> print(dat)
            smiles.str        experimental.readout  test.result
1  O=C1NC(=O)c2ccccc21  solubility (mole fraction)     0.000756

* * *

condition_set: in ethyl acetate, 285.65 K
experimental_readout: solubility (mole fraction)

> print(dat)
            smiles.str        experimental.readout  test.result
1  O=C1NC(=O)c2ccccc21  solubility (mole fraction)      0.00441

* * *

condition_set: in isopropanol, 310.65 K
experimental_readout: solubility (mole fraction)

> print(dat)
            smiles.str  test.result
1  O=C1NC(=O)c2ccccc21      0.00479

* * *

condition_set: in acetone, 283.15 K
experimental_readout: solubility (mole fraction)

> print(dat)
            smiles.str  test.result
1  O=C1NC(=O)c2ccccc21      0.00783

* * *

condition_set: in n-propanol, 290.65 K
experimental_readout: solubility (mole fraction)

> print(dat)
            smiles.str  test.result
1  O=C1NC(=O)c2ccccc21      0.00203

* * *

condition_set: in isobutanol, 313.15 K
experimental_readout: solubility (mole fraction)

> print(dat)
            smiles.str        experimental.readout  test.result
1  O=C1NC(=O)c2ccccc21  solubility (mole fraction)      0.00398

Values from BigSolDB 2.1
